Tested on: SAUR 9218
Experiment: MIC Test Method, standard agar dilution
Format: cell-based
Details: agar dilution, Mueller Hinton agar, incubated overnight at 35° C.; lowest concentration that inhibits visible growth; read-out: SAUR 9218 MIC
Listed compounds paired with reported MIC

COMPOUND	UNIT_ABBREV	PREFIX_OPERATOR	MIC
N#Cc1ccc(NC(=O)C2=NOC(c3ccccc3)C2)c(C(=O)O)c1 (centres unmarked)	µg/mL	=	4
Cn1c(C(=O)Nc2ccc(C#N)cc2C(=O)O)cc2cccc(OCc3ccco3)c21	µg/mL	=	0.125
Cc1sc(C(=O)Nc2ccc(Br)cc2C(=O)O)cc1S(=O)(=O)N1CCN(c2ccc(Cl)cc2)CC1	µg/mL	>	128
COC(=O)CCCCCCC(=O)Nc1cccc2cc(C(=O)Nc3ccc(C#N)cc3C(=O)O)[nH]c12	µg/mL	=	1
N#Cc1ccc(NC(=O)c2cc3ccc(Cl)cc3[nH]2)c(C(=O)O)c1	µg/mL	=	2

====

Tested on: SAUR 9218
Experiment: MIC Test Method, standard agar dilution
Type: cell-based
Details: agar dilution, Mueller Hinton agar, incubated overnight at 35° C.; lowest concentration that inhibits visible growth; read-out: SAUR 9218 MIC

COMPOUND	PREFIX_OPERATOR	MIC / µg/mL
CS(=O)(=O)c1ncc(N2CCOCC2)c(C(=O)Nc2ccc(Br)cc2C(=O)O)n1	>	128
N#Cc1ccc(NC(=S)c2cc(-c3ccccc3F)on2)c(C(=O)O)c1	=	0.5
CS(=O)(=O)c1ncc(Cl)c(C(=O)Nc2ccc(Cl)cc2C(=O)O)n1	>	128
Cn1c(C(=O)Nc2ccc(C#N)cc2C(=O)O)cc2cccc(OCCCOc3ccccc3)c21	=	0.125
COc1ccc(C(=O)Nc2ccc(C#N)cc2C(=O)O)cn1	=	8
Cl.N#Cc1ccc(NC(=O)c2ccc(SCc3ccccc3)nc2)c(C(=O)O)c1	=	0.25
CCC(C)Sc1cnc(C(=O)Nc2ccc(Br)cc2C(=O)O)cn1 (centres unmarked)	=	0.5
O=C(Nc1ccc(Br)cc1C(=O)O)c1cc(-c2ccccc2F)on1	=	0.5
COc1ccccc1CC(=O)Nc1cccc2cc(C(=O)Nc3ccc(C#N)cc3C(=O)O)[nH]c12	=	0.5
N#Cc1ccc(NC(=O)c2cc3cccc(NC(=O)CC4CCCC4)c3[nH]2)c(C(=O)O)c1	=	1
CC(=O)Nc1cccc(-c2ccc3c(C(=O)Nc4ccc(C#N)cc4C(=O)O)noc3c2)c1	=	0.015
COc1ccc(C(=O)Nc2ccc(C#N)cc2C(=O)O)c(OC)n1	>	128
COc1ccc(-c2cc(C(=O)Nc3ccc(Br)cc3C(=O)O)no2)cc1	=	0.5
Cc1sc(C(=O)Nc2ccc(C#N)cc2C(=O)O)cc1S(=O)(=O)N1CCCC1C (centres unmarked)	=	8
Cc1nc2cc(NS(=O)(=O)c3cc(C(=O)Nc4ccc(Br)cc4C(=O)O)sc3C)ccc2s1	=	32
N#Cc1ccc(NC(=O)c2ccc(SC3CCOCC3)nc2)c(C(=O)O)c1	=	0.125
N#Cc1ccc(NC(=O)c2cc3cccc(NC(=O)c4csc(SCc5ccccc5)n4)c3[nH]2)c(C(=O)O)c1	>	128
CC(=O)Nc1cccc(-c2ccc3onc(C(=O)Nc4ccc(C#N)cc4C(=O)O)c3c2)c1	=	0.5
Cn1c(C(=O)Nc2ccc(C#N)cc2C(=O)O)cc2ccc(NC(=O)N3CCOCC3)cc21	=	4
O=C(Nc1ccc(Br)cc1C(=O)O)c1ncc(-c2ccco2)o1	=	2

====

Tested on: SAUR 9218
Experiment: MIC Test Method, standard agar dilution
Assay type: cell-based
Conditions: agar dilution, Mueller Hinton agar, incubated overnight at 35° C.; lowest concentration that inhibits visible growth; read-out: SAUR 9218 MIC

COMPOUND	SYSTEM_TESTED	UNIT_ABBREV	MIC
Cn1c(C(=O)Nc2ccc(Cl)cc2C(=O)O)cc2cccc(S(=O)(=O)c3ccccc3)c21	SAUR 9218	µg/mL	0.125
O=C(Nc1ccc(Br)cc1C(=O)O)c1cc(-c2ccc(C(F)(F)F)cc2)on1	SAUR 9218	µg/mL	1
CCCCN1C(=O)c2ccc(C(=O)Nc3ccc(C#N)cc3C(=O)O)cc2C1=O	SAUR 9218	µg/mL	4
Cc1ccccc1-c1ccc2onc(C(=O)Nc3ccc(C#N)cc3C(=O)O)c2c1	SAUR 9218	µg/mL	0.125
COCOCC(CCc1cc(C(=O)Nc2ccc(Br)cc2C(=O)O)no1)OCOC (stereo not shown)	SAUR 9218	µg/mL	8
N#Cc1ccc(NC(=O)c2noc3cc(-c4ccc([N+](=O)[O-])cc4C(F)(F)F)c([N+](=O)[O-])cc23)c(C(=O)O)c1	SAUR 9218	µg/mL	0.03
Cc1sc(C(=O)Nc2ccc(C#N)cc2C(=O)O)cc1S(=O)(=O)N(C)CCC(O)c1ccccc1 (stereo not shown)	SAUR 9218	µg/mL	64
COCC(C)Oc1cccc2cc(C(=O)Nc3ccc(C#N)cc3C(=O)O)n(C)c12 (stereo not shown)	SAUR 9218	µg/mL	0.125
N#Cc1ccc(NC(=O)c2cc(-c3ccccc3Oc3ccccc3)on2)c(C(=O)O)c1	SAUR 9218	µg/mL	0.03
N#Cc1ccc(NC(=O)c2cc3cccnc3s2)c(C(=O)O)c1	SAUR 9218	µg/mL	4
COc1cccc2cc(C(=O)Nc3ccc(C#N)cc3C(=O)O)oc12	SAUR 9218	µg/mL	4
N#Cc1ccc(NC(=O)c2noc3cc(OS(=O)(=O)c4ccccc4)ccc23)c(C(=O)O)c1	SAUR 9218	µg/mL	0.5
COCOCC(O)C(Cc1cnc(C(=O)Nc2ccc(Br)cc2C(=O)O)cn1)OC (stereo not shown)	SAUR 9218	µg/mL	128
Cc1c(S(=O)(=O)N(C)c2ccc(Cl)cc2)csc1C(=O)Nc1ccc(Br)cc1C(=O)O	SAUR 9218	µg/mL	8
N#Cc1ccc(NC(=O)c2cc(-c3ccc(C(F)(F)F)cc3)on2)c(C(=O)O)c1	SAUR 9218	µg/mL	1
COc1ccc(-c2cnc(C(=O)Nc3ccc(C#N)cc3C(=O)O)o2)cc1	SAUR 9218	µg/mL	1
CN(C(=O)Nc1ccc2cc(C(=O)Nc3ccc(C#N)cc3C(=O)O)n(C)c2c1)c1ccccc1	SAUR 9218	µg/mL	0.5
Cn1c(C(=O)Nc2ccc(C#N)cc2C(=O)O)cc2cccc(NS(C)(=O)=O)c21	SAUR 9218	µg/mL	0.5
O=C(Nc1ccc(Br)cc1C(=O)O)c1cnc(CC(O)[C@H]2COC3(CCCCC3)O2)cn1 (stereo partly shown)	SAUR 9218	µg/mL	128

====

Tested on: SAUR 9218
Experiment: MIC Test Method, standard agar dilution
Assay type: cell-based
Settings: agar dilution, Mueller Hinton agar, incubated overnight at 35° C.; lowest concentration that inhibits visible growth; read-out: SAUR 9218 MIC
Listed molecules paired with reported log10 MIC
MEASURE: log10 MIC (log10 of the value in µg/mL)

MOLECULE	log10 MIC
N#Cc1ccc(NC(=O)c2ncc(-c3ccc(F)cc3)o2)c(C(=O)O)c1	0.00
CC(C)Cn1c(C(=O)Nc2ccc(Br)cc2C(=O)O)cc2ccccc21	0.30
CC(=O)OCC(=O)Nc1ccc2cc(C(=O)Nc3ccc(C#N)cc3C(=O)O)n(C)c2c1	0.00
N#Cc1ccc(NC(=O)c2cc3cccc(NC(=O)CCCCc4ccccc4)c3[nH]2)c(C(=O)O)c1	-0.60
O=C(Nc1ccc(Br)cc1C(=O)O)c1cncc(SCc2ccccc2)n1	1.20
O=C(Nc1ccc(Br)cc1C(=O)O)c1cc2ccccc2o1	0.90
Cn1c(C(=O)Nc2ccc(C#N)cc2C(=O)O)cc2cccc(-c3ccc(S(C)(=O)=O)cc3)c21	0.90
CCCCSc1ccc(C(=O)Nc2ccc(C#N)cc2C(=O)O)cn1	-0.60
O=C(O)c1cc(Cl)ccc1/C=C/c1cc(-c2ccccc2)on1	1.51
CC(=O)OC(C(=O)Nc1cccc2cc(C(=O)Nc3ccc(C#N)cc3C(=O)O)[nH]c12)c1ccccc1 (stereo not drawn)	0.00
N#Cc1ccc(NC(=O)c2ccc(SCc3ncon3)nc2)c(C(=O)O)c1	0.00
CCCCCSc1cnc(C(=O)Nc2ccc(Br)cc2C(=O)O)cn1	-0.60
N#Cc1ccc(NC(=O)c2cc3cccc(NC(=O)C(Cl)c4ccccc4)c3[nH]2)c(C(=O)O)c1 (stereo not drawn)	-0.90
Cn1c(C(=O)Nc2ccc(C#N)cc2C(=O)O)cc2cccc(OCC3CCCCC3)c21	-0.60
N#Cc1ccc(NC(=O)c2noc3ccc([N+](=O)[O-])cc23)c(C(=O)O)c1	-0.60
N#Cc1ccc(NC(=O)c2noc3cc(-c4ccccc4C(F)(F)F)ccc23)c(C(=O)O)c1	-0.90
N#Cc1ccc(NC(=O)c2cncc(C#CCO)c2)c(C(=O)O)c1	1.81
CC1(C)OCC(/C=C/c2cnc(C(=O)Nc3ccc(Br)cc3C(=O)O)cn2)O1 (stereo not drawn)	1.51
